# testedTarget: human A2B adenosine receptors (Homo sapiens, UniProt P29275)
# Sequence (P29275 whole entry): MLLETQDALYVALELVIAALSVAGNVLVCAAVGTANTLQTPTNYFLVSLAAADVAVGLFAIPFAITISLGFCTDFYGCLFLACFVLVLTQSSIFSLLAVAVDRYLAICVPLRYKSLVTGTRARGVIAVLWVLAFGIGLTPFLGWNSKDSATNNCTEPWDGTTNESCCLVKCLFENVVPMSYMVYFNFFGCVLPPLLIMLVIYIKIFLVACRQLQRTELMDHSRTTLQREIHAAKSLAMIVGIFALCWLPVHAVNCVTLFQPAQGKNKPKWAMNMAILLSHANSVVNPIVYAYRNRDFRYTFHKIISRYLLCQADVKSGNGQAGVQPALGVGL
# assayRemarks: Displacement of [3H]MRE2029F20 binding at human A2B adenosine receptors
# experimentalContext: [3H]MRE2029F20 displacement, human A2B receptors (footnote: HEK293 cells; method: CHO cells), n = 3-6; geometric mean (95% confidence limits); read-out: Ki hA2B
pKi: −log10 of the molar value.
Classify by measured pKi: MET if it is equal to or exceeds 7, NOT MET if it is smaller.

Some solved entries appear below for comparison.
CCCn1c(=O)c2[nH]c(-c3nn(CC(=O)Nc4ccc(Cl)cc4)c(C)c3Br)nc2n(CCC)c1=O [Example 19]; NOT MET
CCCn1c(=O)c2[nH]c(-c3cc(C)n(CC(=O)Nc4ccc(Br)cc4)n3)nc2n(CCC)c1=O [Example 3]; MET
CCCn1c(=O)c2[nH]c(-c3cc(C)n(CC(=O)Nc4ccc(I)cc4)n3)nc2n(CCC)c1=O [Example 2]; MET

(Q) Reported pKi reaches at least 7 for CCCn1c(=O)c2[nH]c(-c3cc(C)n(CC(=O)Nc4ccc(C)cc4)n3)nc2n(CCC)c1=O [Example 17] ?
(A) MET

* * *

# IC50 listing for each entry below
# testedTarget: human A2B adenosine receptors (Homo sapiens, UniProt P29275)
# assayRemarks: cAMP assay in CHO cells expressing human A2B adenosine receptors (antagonism of NECA-induced cAMP)
# experimentalContext: antagonism of NECA (100 nM)-induced cAMP, geometric mean (95% confidence limits), read-out: IC50 hA2B (cAMP assay)
# Protocol: Measurement of Cyclic AMP Levels in CHO Cells Transfected with Human A2B Adenosine Receptors CHO cells transfected with human A2B adenosine receptors are washed with phosphate-buffered saline, diluted trypsine and centrifuged for 10 min at 200 g. […] The potency of antagonists studied are determined by antagonism of NECA (100 nM)-induced stimulation of cyclic AMP levels. […]
Use nM as the unit, but write only the number.

CCCn1c(=O)c2[nH]c(-c3cc(C)n(CC(=O)Nc4cccc(Cl)c4)n3)nc2n(CCC)c1=O; 106
CCCn1c(=O)c2[nH]c(-c3cc(C)n(CC(=O)Nc4ccc(C)c(C)c4)n3)nc2n(CCC)c1=O; 200
CCCn1c(=O)c2[nH]c(-c3cc(C)n(CC(=O)Nc4ccc(Cl)cc4)n3)nc2n(CCC)c1=O; 43
CCCn1c(=O)c2[nH]c(-c3cc(C)n(CC(=O)Nc4ccc(OC)cc4)n3)nc2n(CCC)c1=O; 61

Note: attention shifts to another entry.
(Q) Which IC50 value belongs to "CCCn1c(=O)c2[nH]c(-c3ccn(CC(=O)Nc4ccc(Cl)cc4)n3)nc2n(CCC)c1=O" ?
(A) 80

* * *

# testedTarget: human A1 adenosine receptors (Homo sapiens, UniProt P30542)
# Sequence (P30542 whole entry): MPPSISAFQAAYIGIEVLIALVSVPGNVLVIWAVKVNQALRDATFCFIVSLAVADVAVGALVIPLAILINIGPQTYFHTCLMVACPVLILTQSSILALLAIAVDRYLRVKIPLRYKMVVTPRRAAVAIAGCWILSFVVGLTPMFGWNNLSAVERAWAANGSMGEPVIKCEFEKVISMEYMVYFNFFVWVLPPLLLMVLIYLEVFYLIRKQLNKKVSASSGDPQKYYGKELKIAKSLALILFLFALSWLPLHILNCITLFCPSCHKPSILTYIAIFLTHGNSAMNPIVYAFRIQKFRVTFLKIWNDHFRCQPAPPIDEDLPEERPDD
quantity: pKi
Give only the number. pKi is defined as minus log10 of concentration in molar units.

Example entries and their recorded answers appear below.
CCCn1c(=O)c2[nH]c(-c3cc(C)n(CC(=O)Nc4ccccc4)n3)nc2n(CCC)c1=O; 6.46
CCCn1c(=O)c2[nH]c(-c3cc(C)n(CC(=O)Nc4cccc(OC)c4)n3)nc2n(CCC)c1=O; 6.32

Note: attention shifts to another entry.
(Q) Which pKi value belongs to "CCCn1c(=O)c2[nH]c(-c3ccn(CC(=O)Nc4ccc(Cl)cc4)n3)nc2n(CCC)c1=O" ?
(A) 6.85

* * *

# testedTarget: human A2B adenosine receptors (Homo sapiens, UniProt P29275)
# Construct: expressed in transfected cells; host or cells: CHO cells (whole cells)
# assayRemarks: Displacement of [3H]MRE2029F20 binding at human A2B adenosine receptors
# experimentalContext: [3H]MRE2029F20 displacement, human A2B receptors (footnote: HEK293 cells; method: CHO cells), n = 3-6; geometric mean (95% confidence limits); read-out: Ki hA2B
quantity: pKi
Give only the number. pKi is defined as minus log10 of concentration in molar units.

Example entries and their recorded answers appear below.
CCCn1c(=O)c2[nH]c(-c3nn(CC(=O)Nc4ccc(Cl)cc4)c(C)c3Cl)nc2n(CCC)c1=O; 6.65
CCCn1c(=O)c2[nH]c(-c3ccn(CC(=O)Nc4ccc(Cl)cc4)n3)nc2n(CCC)c1=O; 7.70
CCCn1c(=O)c2[nH]c(-c3cc(C)n(CC(=O)Nc4ccc(F)cc4)n3)nc2n(CCC)c1=O; 7.85

Note: attention shifts to another entry.
(Q) Which pKi value belongs to "CCCn1c(=O)c2[nH]c(-c3cc(C)n(CC(=O)Nc4ccc(OC)c(OC)c4)n3)nc2n(CCC)c1=O" ?
(A) 7.22

* * *

# pIC50 listing for each entry below
# testedTarget: human A2B adenosine receptors (Homo sapiens, UniProt P29275)
# Construct: expressed in transfected cells; host or cells: CHO cells (whole cells)
# assayRemarks: cAMP assay in CHO cells expressing human A2B adenosine receptors (antagonism of NECA-induced cAMP)
# Type: cell-based
# experimentalContext: antagonism of NECA (100 nM)-induced cAMP, geometric mean (95% confidence limits), read-out: IC50 hA2B (cAMP assay)
Give only the number. pIC50 is defined as minus log10 of concentration in molar units.

CCCn1c(=O)c2[nH]c(-c3cc(C)n(CC(=O)Nc4ccc(Br)cc4)n3)nc2n(CCC)c1=O; 6.81
CCCn1c(=O)c2[nH]c(-c3cc(C)n(CC(=O)Nc4ccc(I)cc4)n3)nc2n(CCC)c1=O; 6.94

Note: attention shifts to another entry.
(Q) What value of pIC50 on human A2B adenosine receptors (Homo sapiens, UniProt P29275) does "CCCn1c(=O)c2[nH]c(-c3cc(C)n(CC(=O)Nc4ccccc4)n3)nc2n(CCC)c1=O" have?
(A) 7.24

* * *

# testedTarget: human A2B adenosine receptors (Homo sapiens)
# assayRemarks: cAMP assay in CHO cells expressing human A2B adenosine receptors (antagonism of NECA-induced cAMP)
# experimentalContext: antagonism of NECA (100 nM)-induced cAMP, geometric mean (95% confidence limits), read-out: IC50 hA2B (cAMP assay)
quantity: pIC50
Give only the number. pIC50 is defined as minus log10 of concentration in molar units.

Example entries and their recorded answers appear below.
CCCn1c(=O)c2[nH]c(-c3cc(C)n(CC(=O)Nc4ccc(F)cc4)n3)nc2n(CCC)c1=O; 7.17
CCCn1c(=O)c2[nH]c(-c3cc(C)n(CC(=O)Nc4cccc(OC)c4)n3)nc2n(CCC)c1=O; 6.58
CCCn1c(=O)c2[nH]c(-c3cc(C)n(CC(=O)Nc4ccc(C)cc4)n3)nc2n(CCC)c1=O; 6.67
CCCn1c(=O)c2[nH]c(-c3cc(C)n(CC(=O)Nc4ccc(Cl)c(Cl)c4)n3)nc2n(CCC)c1=O; 6.73

Note: attention shifts to another entry.
(Q) Which pIC50 value belongs to "CCCn1c(=O)c2[nH]c(-c3cc(C)n(CC(=O)Nc4ccc(OC)c(OC)c4)n3)nc2n(CCC)c1=O" ?
(A) 6.65

* * *

# IC50 listing for each entry below
# testedTarget: human A2B adenosine receptors (Homo sapiens, UniProt P29275)
# assayRemarks: cAMP assay in CHO cells expressing human A2B adenosine receptors (antagonism of NECA-induced cAMP)
# experimentalContext: antagonism of NECA (100 nM)-induced cAMP, geometric mean (95% confidence limits), read-out: IC50 hA2B (cAMP assay)

Example entries and their recorded answers appear below.
CCCn1c(=O)c2[nH]c(-c3cc(CC)n(CC(=O)Nc4ccc(Cl)cc4)n3)nc2n(CCC)c1=O; > 1 µM
CCCn1c(=O)c2[nH]c(-c3nn(CC(=O)Nc4ccc(Cl)cc4)c(C)c3Cl)nc2n(CCC)c1=O; > 1 µM
CCCn1c(=O)c2[nH]c(-c3nn(CC(=O)Nc4ccc(Cl)cc4)c(C)c3Br)nc2n(CCC)c1=O; > 1 µM

Note: attention shifts to another entry.
(Q) Which IC50 value belongs to "CCCn1c(=O)c2[nH]c(-c3cc(C)n(CC(=O)Nc4ccc(N(C)C)cc4)n3)nc2n(CCC)c1=O" ?
(A) > 1 µM

* * *

# IC50 listing for each entry below
# testedTarget: human A2B adenosine receptors (Homo sapiens, UniProt P29275)
# Construct: expressed in transfected cells; host or cells: CHO cells (whole cells)
# assayRemarks: cAMP assay in CHO cells expressing human A2B adenosine receptors (antagonism of NECA-induced cAMP)
# Assay type: cell-based
# experimentalContext: antagonism of NECA (100 nM)-induced cAMP, geometric mean (95% confidence limits), read-out: IC50 hA2B (cAMP assay)

CCCn1c(=O)c2[nH]c(-c3cc(C)n(CC(=O)Nc4cccc5ccccc45)n3)nc2n(CCC)c1=O; > 1 µM
CCCn1c(=O)c2[nH]c(-c3cc(C)n(CC(=O)Nc4ccc(C(C)CC)cc4)n3)nc2n(CCC)c1=O (stereo not drawn); > 1 µM

(Q) Which IC50 value belongs to "CCCn1c(=O)c2[nH]c(-c3nn(CC(=O)Nc4ccc(Cl)cc4)c(C)c3I)nc2n(CCC)c1=O" ?
(A) > 1 µM
